- Test system: UO-31 renal
- experiment description: NCI-60 one-dose screen, 48 h
- condition summary: 10 µM unless noted
The panel holds about 83,000 compounds, 20% with a hit somewhere; the sample as a whole holds those more often. Activity calls are given as the source filed them. The calls were made as follows: active = growth percent below 10; inactive = the rest.
Answer with one of the outcomes given here: active, inactive

// below: answered compounds
| compound | label |
| --- | --- |
| Cc1cccc(-c2nc(N(C)c3ccc4ncsc4c3)c3ccccc3n2)n1 | inactive |
| Cc1cccc(Cc2cnc(NC(=O)/C=C/c3ccco3)s2)c1 | inactive |
| CC(C)(C)CC(C)(C)Nc1c(-c2ccncc2)nc2cnccn12 | inactive |
| N[C@@H](CCCCNCC(=O)O)C(=O)O | inactive |

Tell me the assay call for CCC1(C2CCCC2)NC(=O)NC1=O (stereo unspecified) please.
inactive

Tell me the assay call for "COc1ccc2c(c1)C(=O)/C(=C/c1ccc(OCC(=O)Nc3nccs3)cc1)O2" please.
active
